Examples of compounds with documented IC50 (log10 nM) follow.
# System: murine gastric organoid WNT-activated (Apc fl/fl; Tp53 R172H)
# Test: IC50 (viability, PrestoBlue) (log10 nM)
# Study Conditions: exposure time: 72 h
Structures can show the parent of a compound that is named as a salt.

Compound	Relation Qualifier	IC50 (log10 nM)
Clc1ccc(Nc2nnc(Cc3ccncc3)c3ccccc23)cc1	=	3.61
CN(C)C/C=C/C(=O)Nc1cc2c(Nc3ccc(F)c(Cl)c3)ncnc2cc1O[C@H]1CCOC1	=	1.27
CSc1ccc2c(c1)N(CCC1CCCCN1C)c1ccccc1S2 (stereo not given) [Thioridazine hydrochloride]	=	3.52
Cc1ccc(NC(=O)c2ccc(CN3CCN(C)CC3)cc2)cc1Nc1nc(-c2cccnc2)cs1 [Masitinib mesylate]	=	3.35
CC(=O)c1c(C)c2cnc(Nc3ccc(N4CCNCC4)cn3)nc2n(C2CCCC2)c1=O	=	4.13
Cc1nc(Nc2ncc(C(=O)Nc3c(C)cccc3Cl)s2)cc(N2CCN(CCO)CC2)n1 [Dasatinib hydrochloride]	=	1.29
CN(C)c1ccccc1CN1CCCN(Cc2ccccc2N(C)C)C1c1ccncc1	=	2.6
CC(C)n1nc(-c2ccc3oc(N)nc3c2)c2c(N)ncnc21	>	4.4
O=c1[nH]cc(F)c(=O)[nH]1	=	4.09
O=C1NC(=O)[C@@H](c2cn3c4c(cccc24)CCC3)[C@@H]1c1c[nH]c2ccccc12 [Tivantinib]	=	2.79
CCCCCCCCCCCCCCCCCCOP(=O)([O-])OC1CC[N+](C)(C)CC1	=	1.16
COC(=O)N[C@@H](C)CNc1nccc(-c2cn(C(C)C)nc2-c2cc(Cl)cc(NS(C)(=O)=O)c2F)n1	=	2.62
CNC(=O)c1cc(Oc2ccc(NC(=O)Nc3ccc(Cl)c(C(F)(F)F)c3)c(F)c2)ccn1	=	3.86
O=C(/C=C/c1cccc(S(=O)(=O)Nc2ccccc2)c1)NO	=	3.27
Cc1ccc(Nc2nccc(N(C)c3ccc4c(C)n(C)nc4c3)n2)cc1S(N)(=O)=O	>	4.4
CC(=O)[C@]1(O)Cc2c(O)c3c(c(O)c2[C@@H](O[C@H]2C[C@H](N)[C@H](O)[C@H](C)O2)C1)C(=O)c1ccccc1C3=O [Idarubicin hydrochloride]	=	0.851
CS(=O)(=O)CCNCc1ccc(-c2ccc3ncnc(Nc4ccc(OCc5cccc(F)c5)c(Cl)c4)c3c2)o1	=	2.43
NC(=O)N1CCC(CC(=O)N2CCC([C@H]3c4ncc(Br)cc4CCc4cc(Cl)cc(Br)c43)CC2)CC1	=	3.47
Cn1cnc2c(F)c(Nc3ccc(Br)cc3Cl)c(C(=O)NOCCO)cc21	=	3.32
COC(=O)[C@]12CCC(C)(C)C[C@H]1[C@H]1C(=O)C=C3[C@@]4(C)C=C(C#N)C(=O)C(C)(C)[C@@H]4CC[C@@]3(C)[C@]1(C)CC2	=	2.92
O=c1[nH]c(=O)n([C@H]2C[C@H](O)[C@@H](CO)O2)cc1F	=	1.61
CN(Cc1cnc2nc(N)nc(N)c2n1)c1ccc(C(=O)N[C@@H](CCC(=O)O)C(=O)O)cc1 [Methotrexate]	=	4.36
Nc1ccccc1NC(=O)c1ccc(CNC(=O)OCc2cccnc2)cc1	=	3.99
Cc1nc(C(=O)NCC(=O)O)c(O)c2ccc(Oc3ccccc3)cc12	=	1.23
Cc1c(N)nc([C@H](CC(N)=O)NC[C@H](N)C(N)=O)nc1C(=O)N[C@H](C(=O)N[C@H](C)[C@@H](O)[C@H](C)C(=O)N[C@H](C(=O)NCCc1nc(-c2nc(C(=O)NCCC[S+](C)C)cs2)cs1)[C@@H](C)O)[C@@H](OC1OC(CO)C(O)C(O)C1OC1OC(CO)C(O)C(OC(N)=O)C1O)c1cnc[nH]1 (stereo not given in full)	>	4.4

====

# Tested on: murine normal gastric organoid
# Test: IC50 (viability, PrestoBlue) (log10 nM)
# Study Conditions: exposure time: 72 h
Counter-ions that a name gives are not always drawn.

Molecule	Relation Qualifier	IC50 (log10 nM)
Cn1nccc1Nc1nccc(-c2ccn([C@H](CO)c3ccc(Cl)c(F)c3)c(=O)c2)n1 [GDC-0994]	=	3.71
C[C@]1(O)C[C@@H](c2nc(-c3ccc4ccc(-c5ccccc5)nc4c3)c3c(N)nccn32)C1 [Linsitinib]	=	2.84
O=C1c2c(O)ccc(O)c2C(=O)c2c(NCCNCCO)ccc(NCCNCCO)c21 [Mitoxantrone dihydrochloride]	=	2.13
C[C@H](NC(=O)/C(C#N)=C/c1cccc(Br)n1)c1ccccc1 [WP1066]	=	3.47
CNC(=O)c1cc(Oc2ccc(NC(=O)Nc3ccc(Cl)c(C(F)(F)F)c3)cc2)ccn1 [Sorafenib]	=	3.78
CN1CCN(c2ccc3nc(-c4c(N)c5c(F)cccc5[nH]c4=O)[nH]c3c2)CC1 [Dovitinib]	=	3.21
Cc1ccc(F)c(NC(=O)Nc2ccc(-c3cccc4[nH]nc(N)c34)cc2)c1 [Linifanib]	=	3.7
COc1cccc2c1C(=O)c1c(O)c3c(c(O)c1C2=O)C[C@@](O)(C(C)=O)C[C@@H]3O[C@H]1C[C@H](N)[C@H](O)[C@H](C)O1 [Daunorubicin hydrochloride]	=	1.56
Nc1nc(Cl)nc2c1ncn2[C@@H]1O[C@H](CO)[C@@H](O)[C@@H]1F [Clofarabine]	=	3.15
COc1cc(Nc2ncc(F)c(Nc3ccc4c(n3)N(COP(=O)(O)O)C(=O)C(C)(C)O4)n2)cc(OC)c1OC [R788 disodium hexahydrate]	=	3.46
CCCCCCCCCCCCCCCCCCOP(=O)([O-])OC1CC[N+](C)(C)CC1 [Perifosine]	<	0.826
CC[C@]1(O)C[C@H]2CN(CCc3c([nH]c4ccccc34)[C@@](C(=O)OC)(c3cc4c(cc3OC)N(C=O)[C@H]3[C@@](O)(C(=O)OC)[C@H](OC(C)=O)[C@]5(CC)C=CCN6CC[C@]43[C@@H]65)C2)C1 [Vincristine sulfate]	=	1.68
COC1=CC(c2cc3ccccc3[nH]2)=N/C1=C\c1[nH]c(C)cc1C [Obatoclax]	=	2.31
Cc1nc(Nc2ncc(C(=O)Nc3c(C)cccc3Cl)s2)cc(N2CCN(CCO)CC2)n1 [Dasatinib hydrochloride]	=	2.05
O=C(c1ccc(F)c(F)c1Nc1ccc(I)cc1F)N1CC(O)([C@@H]2CCCCN2)C1 [Cobimetinib]	=	1.45
O=c1[nH]cc(F)c(=O)[nH]1 [fluorouracil]	=	3.4
C=CC(=O)N1CCC[C@@H](n2nc(-c3ccc(Oc4ccccc4)cc3)c3c(N)ncnc32)C1 [Ibrutinib]	=	2.2
Nc1ccccc1NC(=O)c1ccc(CNC(=O)OCc2cccnc2)cc1 [Entinostat]	=	4.22
Cc1[nH]c2ccccc2c1CCNCc1ccc(/C=C/C(=O)NO)cc1 [Panobinostat]	=	3.17
CN(C)c1ccccc1CN1CCCN(Cc2ccccc2N(C)C)C1c1ccncc1 [GANT-61]	=	1.27
CC[C@]1(O)C[C@@H]2CN(CCc3c([nH]c4ccccc34)[C@@](C(=O)OC)(c3cc4c(cc3OC)N(C)[C@H]3[C@@](O)(C(=O)OC)[C@H](OC(C)=O)[C@]5(CC)C=CCN6CC[C@]43[C@@H]65)C2)C1 [Vinblastine sulfate]	<	0.826
CC(=O)Nc1ccc(C(=O)Nc2ccccc2N)cc1 [Tacedinaline]	=	4.34
COc1cc2nccc(Oc3ccc(NC(=O)Nc4cc(C)on4)c(Cl)c3)c2cc1OC [Tivozanib]	=	2.5
Nc1ccn([C@@H]2O[C@H](CO)[C@@H](O)[C@@H]2O)c(=O)n1 [Cytarabine]	=	2.33

====

# System: murine gastric organoid diffuse (Cdh1 fl/fl; Apc fl/fl)
# Test: IC50 (viability, PrestoBlue) (log10 nM)
# Study Conditions: exposure time: 72 h
Counter-ions that a name gives are not always drawn.
Examples of compounds with documented IC50 (log10 nM) follow.

Compound	Target Of Assay	Relation Qualifier	IC50 (log10 nM)
Cc1c2oc3c(C)ccc(C(=O)N[C@@H]4C(=O)N[C@H](C(C)C)C(=O)N5CCC[C@H]5C(=O)N(C)CC(=O)N(C)[C@@H](C(C)C)C(=O)O[C@@H]4C)c3nc-2c(C(=O)N[C@@H]2C(=O)N[C@H](C(C)C)C(=O)N3CCC[C@H]3C(=O)N(C)CC(=O)N(C)[C@@H](C(C)C)C(=O)O[C@@H]2C)c(N)c1=O	murine gastric organoid diffuse (Cdh1 fl/fl; Apc fl/fl)	<	0.826
COC1=CC(c2cc3ccccc3[nH]2)=N/C1=C\c1[nH]c(C)cc1C	murine gastric organoid diffuse (Cdh1 fl/fl; Apc fl/fl)	=	3.06
COc1cc2/c(=N/c3ccc(Br)cc3F)nc[nH]c2cc1OCC1CCN(C)CC1	murine gastric organoid diffuse (Cdh1 fl/fl; Apc fl/fl)	=	2.76
COc1cc(OC)c(/C=C/S(=O)(=O)Cc2ccc(OC)c(NCC(=O)O)c2)c(OC)c1 [Rigosertib sodium]	murine gastric organoid diffuse (Cdh1 fl/fl; Apc fl/fl)	=	1.55
COc1cc2c(cc1OC)CN(CCc1ccc(NC(=O)c3cc(OC)c(OC)cc3NC(=O)c3cnc4ccccc4c3)cc1)CC2	murine gastric organoid diffuse (Cdh1 fl/fl; Apc fl/fl)	=	3.95
COc1cc2nccc(Oc3ccc(NC(=O)Nc4cc(C)on4)c(Cl)c3)c2cc1OC	murine gastric organoid diffuse (Cdh1 fl/fl; Apc fl/fl)	>	4.4
COc1c(OCCCN2CCOCC2)ccc2c1N=C(NC(=O)c1cnc(N)nc1)N1CCN=C21	murine gastric organoid diffuse (Cdh1 fl/fl; Apc fl/fl)	=	2.23
Cc1sc2c(c1C)C(c1ccc(Cl)cc1)=N[C@@H](CC(=O)Nc1ccc(O)cc1)c1nnc(C)n1-2	murine gastric organoid diffuse (Cdh1 fl/fl; Apc fl/fl)	=	2.47
N#CCNC(=O)c1ccc(-c2ccnc(Nc3ccc(N4CCOCC4)cc3)n2)cc1	murine gastric organoid diffuse (Cdh1 fl/fl; Apc fl/fl)	=	3.58
CC(C)(C)c1cc(NC(=O)Nc2ccc(-c3cn4c(n3)sc3cc(OCCN5CCOCC5)ccc34)cc2)no1	murine gastric organoid diffuse (Cdh1 fl/fl; Apc fl/fl)	=	3.09
CSc1ccc2c(c1)N(CCC1CCCCN1C)c1ccccc1S2 (centres undefined) [Thioridazine hydrochloride]	murine gastric organoid diffuse (Cdh1 fl/fl; Apc fl/fl)	=	4.13
Nc1ccn([C@@H]2O[C@H](CO)[C@@H](O)C2(F)F)c(=O)n1	murine gastric organoid diffuse (Cdh1 fl/fl; Apc fl/fl)	=	1.53
Nc1ncn([C@H]2C[C@H](O)[C@@H](CO)O2)c(=O)n1	murine gastric organoid diffuse (Cdh1 fl/fl; Apc fl/fl)	=	3.85
O=C1NC(=O)[C@@H](c2cn3c4c(cccc24)CCC3)[C@@H]1c1c[nH]c2ccccc12 [Tivantinib]	murine gastric organoid diffuse (Cdh1 fl/fl; Apc fl/fl)	=	3.1
